Tgt: UniProt P08684
Sequence (P08684 whole entry): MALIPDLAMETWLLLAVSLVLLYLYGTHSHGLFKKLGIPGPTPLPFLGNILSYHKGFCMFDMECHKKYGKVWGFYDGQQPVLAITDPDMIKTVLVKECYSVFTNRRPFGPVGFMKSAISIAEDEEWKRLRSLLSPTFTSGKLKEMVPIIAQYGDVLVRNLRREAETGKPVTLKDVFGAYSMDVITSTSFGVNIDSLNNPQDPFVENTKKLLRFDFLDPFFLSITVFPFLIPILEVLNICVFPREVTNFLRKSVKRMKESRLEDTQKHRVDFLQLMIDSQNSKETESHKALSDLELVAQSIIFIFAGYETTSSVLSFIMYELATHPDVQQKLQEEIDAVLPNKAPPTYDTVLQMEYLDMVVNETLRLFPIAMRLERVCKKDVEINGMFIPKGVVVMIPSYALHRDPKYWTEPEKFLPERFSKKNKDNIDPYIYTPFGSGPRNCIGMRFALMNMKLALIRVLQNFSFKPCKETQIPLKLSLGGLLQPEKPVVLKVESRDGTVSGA
Result type: IC50

Exercise: Recall the reported IC50 of COc1c(Nc2ncc(Cl)c(N[C@H]3[C@@H](C(N)=O)[C@@H]4C=C[C@H]3C4)n2)ccc2c1CCC[C@H](N1CCN(C)CC1)C2 on UniProt P08684 and write it down.
Key: > 10 µM

* * *

Assay procedure: Half life in CD-1 mouse at 1 mg/kg, iv by LC/MS/MS analysis
Format: ADME, organism-based
Assay setup: in vivo
Result type: half-life (h)
State just the number; it will be interpreted in h.

Exercise: Identify the reported half-life for the following entry. CNC(=O)c1ccccc1Nc1nc(Nc2ccc3c(c2OC)CCC[C@H](N2CCN(CCO)CC2)C3)ncc1Cl
Key: 3

Numbers sourced from ChEMBL document CHEMBL3856231.
